Target Of Assay: PSII reaction centers of thylakoid extract (Spinacia oleracea, UniProt P69560)
Construct: both lyophilized thylakoid extracts were resuspended in: Tris-HCl 50 mM pH 7.5; sorbitol 330 mM; from tissue; host or cells: plant thylakoid membrane extract (lyophilized, rehydrated)
Experiment: Inhibition of Fv/Fm (photosynthetic efficiency) of thylakoid extract by atrazine
Type: biochemical, Spinacia oleracea L.
Recorded Conditions: several batches of thylakoid extract, 95% confidence, FIG. 4; read-out: IC50 of an accepted lot (within 2σ of the mean IC50)
Endpoint Label: IC50

> print(dat)
                             compound                           target.of.assay    assay.result
1  CCNc1nc(Cl)nc(NC(C)C)n1 [atrazine]  PSII reaction centers of thylakoid extract (Spinacia oleracea, UniProt P69560)  76.5 to 218 nM
